B1: HA-tagged B55α (HA-B55α), wild type [human] / FLAG-Eya3 (human), wild type [human] (parent complex)
chain 1: MAGAGGGNDIQWCFSQVKGAVDDDVAEADIISTVEFNHSGELLATGDKGGRVVIFQQEQENKIQSHSRGEYNVYSTFQSHEPEFDYLKSLEIEEKINKIRWLPQKNAAQFLLSTNDKTIKLWKISERDKRPEGYNLKEEDGRYRDPTTVTTLRVPVFRPMDLMVEASPRRIFANAHTYHINSISINSDYETYLSADDLRINLWHLEITDRSFNIVDIKPANMEELTEVITAAEFHPNSCNTFVYSSSKGTIRLCDMRASALCDRHSKLFEEPEDPSNRSFFSEIISSISDVKFSHSGRYMMTRDYLSVKIWDLNMENRPVETYQVHEYLRSKLCSLYENDCIFDKFECCWNGSDSVVMTGSYNNFFRMFDRNTKRDITLEASRENNKPRTVLKPRKVCASGKRKKDEISVDSLDFNKKILHTAWHPKENIIAVATTNNLYIFQDKVN
chain 2: MEEEQDLPEQPVKKAKMQESGEQTISQVSNPDVSDQKPETSSLASNLPMSEEIMTCTDYIPRSSNDYTSQMYSAKPYAHILSVPVSETAYPGQTQYQTLQQTQPYAVYPQATQTYGLPPFGALWPGMKPESGLIQTPSPSQHSVLTCTTGLTTSQPSPAHYSYPIQASSTNASLISTSSTIANIPAAAVASISNQDYPTYTILGQNQYQACYPSSSFGVTGQTNSDAESTTLAATTYQSEKPSVMAPAPAAQRLSSGDPSTSPSLSQTTPSKDTDDQSRKNMTSKNRGKRKADATSSQDSELERVFLWDLDETIIIFHSLLTGSYAQKYGKDPTVVIGSGLTMEEMIFEVADTHLFFNDLEECDQVHVEDVASDDNGQDLSNYSFSTDGFSGSGGSGSHGSSVGVQGGVDWMRKLAFRYRKVREIYDKHKSNVGGLLSPQRKEALQRLRAEIEVLTDSWLGTALKSLLLIQSRKNCVNVLITTTQLVPALAKVLLYGLGEIFPIENIYSATKIGKESCFERIVSRFGKKVTYVVIGDGRDEEIAAKQHNMPFWRITNHGDLVSLHQALELDFL

# Variants of: B1
# Method notes: FLAG co-IP followed by Western blot, band quantification; cotransfected HEK cells; three biological replicates; parent: 1; read off a plot
Parameter: ratio to parent. Scope: all listed entries.

Problem: I'd like to know its ratio to parent. The variant in question is chain 1 K345E
Result: ~0.36

Problem: I'd like to know its ratio to parent. The variant in question is chain 1 E27R
Result: ~1.2

Problem: I'd like to know its ratio to parent. The variant in question is chain 1 E93A, chain 1 E94A, chain 1 K95A
Result: ~0.4
